- target_of_assay: T1, human ROR2 expressed on the cell surface (human, UniProt Q01974 34-943)
- T1 construct: Endogenous ROR2 of human tumour cell lines; also called cell surface ROR2; ROR2 on tumour cell lines
- assay_details: flow cytometry, HTB27 cells (breast CA)
- Parameters: unit not given here
quantity_name: binding intensity
// no unit string in output, number only

Problem: Entry ROR2-90 full length human IgG1 antibody (antibody, V domains shown, also called clone #90; antibody #90) VH: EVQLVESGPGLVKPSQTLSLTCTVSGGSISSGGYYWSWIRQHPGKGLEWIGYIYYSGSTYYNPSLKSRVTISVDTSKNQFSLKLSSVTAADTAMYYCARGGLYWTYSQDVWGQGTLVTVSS VL: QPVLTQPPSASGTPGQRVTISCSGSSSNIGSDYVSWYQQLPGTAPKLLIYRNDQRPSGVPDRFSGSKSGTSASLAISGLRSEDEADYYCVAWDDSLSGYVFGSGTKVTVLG : reported binding intensity = ?
Solution: 125

Problem: Value lookup for binding intensity; key = ROR2-240 full length human IgG1 antibody (antibody, V domains shown, also called clone #240 IgG1) VH: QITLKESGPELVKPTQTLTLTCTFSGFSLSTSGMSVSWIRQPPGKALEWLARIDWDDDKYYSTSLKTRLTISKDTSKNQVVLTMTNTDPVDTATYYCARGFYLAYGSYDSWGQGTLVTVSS VL: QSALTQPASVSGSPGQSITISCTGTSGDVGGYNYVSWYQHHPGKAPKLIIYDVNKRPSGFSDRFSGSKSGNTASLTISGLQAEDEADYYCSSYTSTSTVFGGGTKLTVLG
Solution: 7

Problem: Would you kindly share the measured binding intensity for ROR2-23 full length human IgG1 antibody (antibody, V domains shown, The light chain of clone 023 is labelled kappa; also called clone #23; clone #023 IgG1) VH: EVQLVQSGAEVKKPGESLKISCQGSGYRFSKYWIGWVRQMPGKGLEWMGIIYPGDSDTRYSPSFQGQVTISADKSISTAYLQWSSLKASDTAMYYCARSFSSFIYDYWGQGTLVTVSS VL: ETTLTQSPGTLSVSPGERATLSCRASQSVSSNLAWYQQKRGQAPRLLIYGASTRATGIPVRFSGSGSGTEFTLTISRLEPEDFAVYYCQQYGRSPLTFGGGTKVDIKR ?
Solution: 58

With those in mind, consider the next binder.
Problem: Item ROR2-27 full length human IgG1 antibody (antibody, V domains shown, also called clone #27; clone #027 IgG1) VH: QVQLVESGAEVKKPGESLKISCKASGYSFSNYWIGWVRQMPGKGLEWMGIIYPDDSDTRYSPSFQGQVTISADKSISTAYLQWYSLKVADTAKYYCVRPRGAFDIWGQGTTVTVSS VL: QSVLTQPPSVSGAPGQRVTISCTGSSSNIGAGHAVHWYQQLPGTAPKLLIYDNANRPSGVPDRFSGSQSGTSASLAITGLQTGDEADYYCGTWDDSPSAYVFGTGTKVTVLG has what recorded binding intensity?
Solution: 11
